tested on: NCI-H522 lung; assay: NCI-60 one-dose screen, 48 h; settings: 10 µM unless noted
This is part of a sample that, as a whole, favours compounds with a hit. Of some 83,000 tested, about 20% had one in any assay. Calls of active or inactive are those of the source. How the source made its calls: active means growth percent below 10; inactive means the rest.
Result category, one only: active, inactive

Would you mind telling me which call this test gave CC1(C)CC[C@]2(C(=O)O)CC[C@]3(C)C(=CC[C@@H]4[C@@]5(C)C/C(=C/c6cccnc6)[C@H](O)C(C)(C)[C@@H]5CC[C@]43C)[C@@H]2C1 ? active

How about this molecule: CCN(CCNc1ccc(C)c2sc3cc(Cl)ccc3c(=O)c12)CC(C)O (stereo not given) inactive

How about this molecule: O=C1/C(=C/c2ccc(OCc3ccccc3)cc2)Oc2cc(OCCN3CCCCC3)ccc21 inactive

How about this molecule: COc1cc(/C=C/C(=O)/C=C/c2ccc(-n3ccnc3)cc2)ccc1O inactive

How about this molecule: CCN(CC)CCCC(C)Nc1ccnc2cc(Cl)c(SCc3ccccc3)cc12 (stereo not given) active

How about this molecule: CCN(CC)c1cc(N)c(Cc2c(N)cc(N(CC)CC)cc2Cl)c(Cl)c1 active

How about this molecule: Cc1ccc(NC(=O)N[C@@H](Cc2cc(F)cc(F)c2)C(=O)N[C@@H]2C(=O)N3CCC[C@H]3C(=O)N3CCOC[C@H]3C(=O)N[C@@H](C)C(=O)N3C[C@H](C)C[C@H]3C(=O)O[C@H]2C)cc1 inactive

How about this molecule: C#C[C@]1(O)CC[C@H]2[C@@H]3CC=C4c5nc(Nc6ncccn6)sc5CC[C@]4(C)[C@H]3CC[C@@]21C inactive

How about this molecule: O=S(=O)(NCc1ccccc1)c1ncnc2nc[nH]c12 inactive

How about this molecule: COc1cc2c(O)n(CCCN3CCOCC3)c3c4cnc5cccc(c(=O)c3c2cc1OC)c54 inactive

How about this molecule: CSc1nc(=S)c2nc(SC)n(-c3ccccc3)c2[nH]1 inactive

How about this molecule: COc1ccc(-c2cc(-c3ccc(Cl)cc3)nc(NCCCCNc3ccnc4cc(Cl)ccc34)n2)cc1 inactive

How about this molecule: COc1cc(C)cc2oc3oc(=N)c(C(=O)c4ccccc4)cc3c(=O)c12 inactive

How about this molecule: CC(C)[C@H]1COC(=O)N1[C@@H]1C(=O)N([C@@H](CCC(=O)N2CCN(C3CCCC3)CC2)C(=O)N[C@@H]2CCCc3ccccc32)[C@@H]1/C=C/c1cccc(Cl)c1 inactive

How about this molecule: CCCCNC(=O)NS(=O)(=O)Cc1ccccc1 inactive

How about this molecule: NNC(=O)c1ccc(C(=O)NN)cc1 inactive

How about this molecule: N#Cc1ccc(-c2ccc(COc3ccc(CC4SC(=O)NC4=O)cc3)cc2)cc1 (stereo not given) inactive

How about this molecule: CCOC(=O)c1cc(C#N)n2ncc3ccccc3c12 inactive

How about this molecule: COC(=O)[C@@H](NC(=O)NC(=O)NC(=O)CI)C(C)C active

How about this molecule: Cc1ccc(NC(=O)N[C@@H](Cc2cc(F)cc(F)c2)C(=O)N[C@@H]2C(=O)N3CCC[C@H]3C(=O)N3CCCC[C@H]3C(=O)N[C@@H](C)C(=O)N3C[C@H](C)C[C@H]3C(=O)O[C@H]2C)cc1 inactive

How about this molecule: COCCCNc1nc(NC(=O)c2cc(OC)cc(OC)c2)cc(-c2cccnc2)n1 inactive

How about this molecule: O=C(Nc1ccc(Cl)c(C(F)(F)F)c1)Nc1ccc(-c2cccnc2)cc1N1CCC(CO)CC1 inactive

How about this molecule: Cc1ccc2c(c1)C(C)Cc1c(Cl)ncnc1N2C (stereo not given) inactive

How about this molecule: CN(C)C(=S)Sc1ccc([N+](=O)[O-])cc1[N+](=O)[O-] active

How about this molecule: FC(F)(F)c1ccc2c(c1)Sc1ccccc1N2 inactive

How about this molecule: Cc1ccc(-c2cc(-c3ccc(C)cc3)nc(N3CCN(CCNc4ccnc5cc(Cl)ccc45)CC3)n2)cc1 inactive

How about this molecule: Nc1nc(Nc2ccccc2)c2ncn(Cc3cc4c(cc3Br)OCO4)c2n1 active

How about this molecule: O=C1COCCN1c1ccc(NCc2cn(Cc3ccccc3)c3ccccc23)cc1 inactive

How about this molecule: C[C@H]1[C@H](C)CC[C@]2(C(=O)O)CC[C@]3(C)C(=CC[C@@H]4[C@@]5(C)C/C(=C/c6ccco6)C(=O)C(C)(C)[C@@H]5CC[C@]43C)[C@H]12 active

How about this molecule: Nc1nc(Cl)c2ncn(Cc3cc4c(cc3I)OCO4)c2n1 inactive
